The following molecules have recorded IC50 on P2X purinoceptor 7 (Homo sapiens, UniProt Q99572).
Record the value in nM, omitting the unit from your answer.

Record excerpt, results attached:
INSERT INTO assay_data (molecule, system, unit_info, result_value) VALUES
  ('CN1C(=O)CCC1(C)C(=O)NCc1ccc(Cl)cc1Cl (stereo not drawn)', 'P2X purinoceptor 7 (Homo sapiens, UniProt Q99572)', 'nM', 200),
  ('O=C1CN(C(=O)c2cccc(C(F)(F)F)c2Cl)CCN1CC1CCC1', 'P2X purinoceptor 7 (Homo sapiens, UniProt Q99572)', 'nM', 200);

## Task # input molecule: `CN1C(=O)CC[C@H]1C(=O)NCc1cccc(F)c1C(F)(F)F` ; wanted: its IC50
## Result 200

----------
This listing pairs molecules with measured IC50.
- system: P2X purinoceptor 7 (Homo sapiens, UniProt Q99572)
- Sequence (Q99572 whole entry): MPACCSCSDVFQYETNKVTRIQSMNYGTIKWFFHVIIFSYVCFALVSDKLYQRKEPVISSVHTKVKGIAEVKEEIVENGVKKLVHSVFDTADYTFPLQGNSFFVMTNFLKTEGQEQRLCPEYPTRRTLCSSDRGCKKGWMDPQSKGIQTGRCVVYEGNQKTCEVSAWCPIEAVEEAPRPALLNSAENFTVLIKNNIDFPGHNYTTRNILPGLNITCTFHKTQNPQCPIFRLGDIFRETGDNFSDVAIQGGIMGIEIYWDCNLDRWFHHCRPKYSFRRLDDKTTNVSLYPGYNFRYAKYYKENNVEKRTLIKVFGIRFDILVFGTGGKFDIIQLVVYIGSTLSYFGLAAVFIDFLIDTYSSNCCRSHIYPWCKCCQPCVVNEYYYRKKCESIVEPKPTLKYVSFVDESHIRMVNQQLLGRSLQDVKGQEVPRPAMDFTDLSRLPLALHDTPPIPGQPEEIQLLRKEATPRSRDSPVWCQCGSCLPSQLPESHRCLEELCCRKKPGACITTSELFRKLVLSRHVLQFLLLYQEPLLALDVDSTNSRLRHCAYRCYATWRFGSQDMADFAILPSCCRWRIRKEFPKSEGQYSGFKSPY
Record the value in µM, omitting the unit from your answer.

Record excerpt, results attached:
INSERT INTO assay_data (structure_smiles_string, measurement_label, result_value) VALUES
  ('CN1C(=O)N(c2ccc(F)nc2)C[C@H]1C(=O)NCc1cccc(C(F)(F)F)c1Cl', 'IC50', 0.00794),
  ('Cn1cccc1-c1nnc2n1CCN(C(=O)c1cccc(Cl)c1Cl)C2', 'IC50', 0.0126),
  ('Cc1nn(-c2cccc(F)c2)c(C)c1CC(=O)NCc1ccc(F)cc1Cl', 'IC50', 0.2),
  ('CN1C(=O)N(c2cccnc2)C[C@H]1C(=O)NCc1ccc(F)cc1Cl', 'IC50', 0.0501);

## Task # input molecule: `Cn1ncc(Cl)c1CC(=O)NCc1ccc(Cl)cc1Cl` ; wanted: its IC50
## Result 0.0126

----------
- system: P2X purinoceptor 7 (Homo sapiens, UniProt Q99572)
pIC50: −log10 of the molar value.
Respond with 1 (yes) for pIC50 values of 7 and above, 0 (no) for values below.

INSERT INTO measurements (compound, class) VALUES
  ('O=C(NCc1ccc(F)cc1Cl)C1CCC(=O)N1C1CC1 (stereo not given)', '1 (yes)'),
  ('Cc1nn(-c2ccccc2)c(C)c1CC(=O)NCc1ccc(F)c(C(F)(F)F)c1', '0 (no)'),
  ('O=C1C(=O)N(c2cc(Cl)ccc2N2CCOCC2)CCN1Cc1ccc(F)cc1Cl', '1 (yes)'),
  ('O=C1CN(C(=O)c2cccc(C(F)(F)F)c2Cl)CCN1CC1CC1', '1 (yes)'),
  ('O=C(NCc1ccc(F)cc1Cl)C1COCC(=O)N1Cc1ccccc1 (stereo not given)', '0 (no)'),
  ('CCn1nc(C)c(CC(=O)NCc2ccc(F)cc2Cl)c1C', '0 (no)');

Then this compound:
## Task Decide: is the reported value of pIC50 for `O=C(c1cccc(C(F)(F)F)c1Cl)N1CCn2c(nnc2-c2ccc(F)cn2)C1` equal to or greater than 7?
## Result 1 (yes)

----------
- system: P2X purinoceptor 7 (Homo sapiens, UniProt Q99572)
Simple rule here: IC50 less than 0.2 µM is yes (1), otherwise no (0).

INSERT INTO measurements (structure_smiles_string, class) VALUES
  ('CCN1C(=O)CC[C@H]1C(=O)NCc1c(Cl)cccc1Cl', 'yes (1)');

## Task Input `O=C(NCc1ccc(Cl)cc1Cl)[C@H]1CCC(=O)N1Cc1cccnc1` ; condition: IC50 strictly below 0.2 µM. Does it hold?
## Result yes (1)

## Task Check `CCN1C(=O)CC[C@H]1C(=O)NCc1c(F)ccc(C)c1Cl` too.
## Result yes (1)

## Task Check `Cc1ccc(N2C[C@@H](C(=O)NCc3ccc(Cl)cc3Cl)N(C)C2=O)c(C)n1` too.
## Result yes (1)

## Task Check `CC(C)CN1CCN(C(=O)c2cccc(Cl)c2Cl)CC1=O` too.
## Result yes (1)

## Task Check `COc1ccc(F)cc1N1CCN(Cc2ccc(F)cc2Cl)C(=O)C1=O` too.
## Result yes (1)

## Task Check `Cc1nn(CC(C)C)c(C)c1CC(=O)NCc1ccc(F)cc1Cl` too.
## Result no (0)

## Task Check `O=C(c1cccc(Cl)c1Cl)N1CCn2c(nnc2-c2ccc(F)cc2)C1` too.
## Result yes (1)

## Task Check `O=C(c1cccc(C(F)(F)F)c1Cl)N1CCN(c2cc(N3CCOCC3)ccc2Cl)C(=O)C1` too.
## Result yes (1)

## Task Check `O=C(c1c(F)ccc(F)c1Cl)N1CCN(c2ccc(F)cc2Cl)C(=O)C1` too.
## Result no (0)

## Task Check `CN1C[C@@H](C(=O)NCc2ccc(F)c(F)c2F)N(C)C1=O` too.
## Result yes (1)

## Task Check `O=C(c1cccc(Cl)c1Cl)N1CCN(c2ccc(F)cc2F)C(=O)C1` too.
## Result yes (1)

## Task Check `O=C(NCc1cccc(Cl)c1Cl)[C@@H]1CCC(=O)N1C1CCC1` too.
## Result yes (1)

----------
- system: P2X purinoceptor 7 (Homo sapiens, UniProt Q99572)
Simple rule here: IC50 less than 80 nM is Satisfied, otherwise Not satisfied.

INSERT INTO assay_data (compound, class) VALUES
  ('O=C(NCc1ccc(F)cc1Cl)C1CC(=O)N(C2CC2)C1 (configuration not stated)', 'Not satisfied'),
  ('Cc1ccc(C(F)(F)F)cc1N1CCN(Cc2ccc(F)cc2Cl)C(=O)C1=O', 'Satisfied'),
  ('Cc1c(Cl)cccc1CNC(=O)[C@@H]1CCS(=O)(=O)N1C', 'Not satisfied');

## Task Input `CC(C)c1ccccc1N1CCN(Cc2ccc(F)cc2Cl)C(=O)C1=O` ; condition: IC50 strictly below 80 nM. Does it hold?
## Result Satisfied

## Task Check `O=C(c1cccc(C(F)(F)F)c1Cl)N1CCn2c(Cl)cnc2C1` too.
## Result Satisfied

## Task Check `O=C(c1ccc(F)cc1Cl)N1CCN(c2cccc3ccccc23)C(=O)C1` too.
## Result Not satisfied

----------
The following compounds have recorded pIC50 on P2X purinoceptor 7 (Homo sapiens, UniProt Q99572).
Reminder that pIC50 means the negative base-10 logarithm of the concentration expressed in mol/L.

INSERT INTO measurements (structure_smiles_string, result_value) VALUES
  ('CN1C(=O)N(CCF)C[C@H]1C(=O)NCc1ccc(Cl)cc1Cl', 8.50);

## Task # input compound: `CCN1[C@H](C(=O)NCc2ccc(F)c(F)c2F)CCS1(=O)=O` ; wanted: its pIC50
## Result 6.60

## Task Check `Cc1cnn(CC(F)(F)F)c1CC(=O)NCc1ccc(F)c(F)c1Cl` too.
## Result 7.30

## Task Check `Cc1ccc(N2CCOCC2)cc1N1CCN(C(=O)c2cccc(C(F)(F)F)c2Cl)CC1=O` too.
## Result 7.80

## Task Check `O=C1C(=O)N(c2cc(F)ccc2N2CCOCC2)CCN1Cc1ccc(F)cc1Cl` too.
## Result 7.80

## Task Check `COc1ccc(N2CCOCC2)cc1N1CCN(Cc2ccc(F)cc2Cl)C(=O)C1=O` too.
## Result 7.30

## Task Check `O=C(c1cccc(C(F)(F)F)c1Cl)N1CCn2c(nnc2-c2ccccc2)C1` too.
## Result 8.50

----------
This listing pairs compounds with measured IC50.
Target chain: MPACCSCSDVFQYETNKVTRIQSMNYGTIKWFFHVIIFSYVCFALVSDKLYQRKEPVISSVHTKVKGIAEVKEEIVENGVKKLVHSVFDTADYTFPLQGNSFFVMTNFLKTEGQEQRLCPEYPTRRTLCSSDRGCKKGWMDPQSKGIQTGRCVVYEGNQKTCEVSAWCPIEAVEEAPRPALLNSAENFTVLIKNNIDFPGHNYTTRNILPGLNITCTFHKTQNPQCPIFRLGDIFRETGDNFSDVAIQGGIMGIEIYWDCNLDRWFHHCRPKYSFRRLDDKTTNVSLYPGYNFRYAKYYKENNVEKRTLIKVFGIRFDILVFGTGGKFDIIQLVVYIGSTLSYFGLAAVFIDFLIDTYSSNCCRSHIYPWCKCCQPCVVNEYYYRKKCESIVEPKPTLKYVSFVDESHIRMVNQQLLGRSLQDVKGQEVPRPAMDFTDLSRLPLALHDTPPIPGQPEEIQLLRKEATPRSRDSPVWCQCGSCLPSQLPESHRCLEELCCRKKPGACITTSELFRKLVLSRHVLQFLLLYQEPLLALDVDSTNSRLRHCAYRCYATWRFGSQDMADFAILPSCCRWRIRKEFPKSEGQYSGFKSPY
Record the value in nM, omitting the unit from your answer.

Record excerpt, results attached:
INSERT INTO assay_data (structure_smiles_string, unit_info, result_value) VALUES
  ('Cc1ccccc1N1CCN(Cc2ccc(F)cc2C(F)(F)F)C(=O)C1=O', 'nM', 126),
  ('Cc1cc(F)cc(C)c1N1CCN(Cc2ccc(F)cc2C(F)(F)F)C(=O)C1=O', 'nM', 79.4),
  ('CCOc1ccc(-n2nc(C)c(CC(=O)NCc3ccc(F)cc3Cl)c2C)cc1', 'nM', 158);

## Task # input compound: `COc1nnc2n1CCN(C(=O)c1cccc(C(F)(F)F)c1Cl)C2` ; wanted: its IC50
## Result 79.4

## Task Check `COc1c(Cl)cccc1N1CCN(Cc2ccc(F)cc2Cl)C(=O)C1=O` too.
## Result 63.1

## Task Check `O=C(c1ccc(Cl)cc1Cl)N1CCn2c(nc(Cl)c2Cl)C1` too.
## Result 39.8

## Task Check `O=C1C(=O)N(c2cccc(I)c2)CCN1Cc1ccc(F)cc1Cl` too.
## Result 398

## Task Check `O=C(c1cccc(C(F)(F)F)c1Cl)N1CCn2c(nc(Cl)c2Cl)C1` too.
## Result 3.16

## Task Check `O=C1C(=O)N(c2ccccc2Br)CCN1Cc1ccc(F)cc1Cl` too.
## Result 12.6

## Task Check `O=C1C(=O)N(c2ccccc2-n2cccc2)CCN1Cc1ccc(F)cc1Cl` too.
## Result 100

## Task Check `Cc1ccc(N2C[C@@H](C(=O)NCc3ccc(F)cc3Cl)N(C)C2=O)c(C)n1` too.
## Result 63.1

## Task Check `CN1C[C@@H](C(=O)NCc2c(Cl)cc(Cl)cc2Cl)N(C)C1=O` too.
## Result 0.794

## Task Check `Cc1ccc(N2CCOCC2)c(N2CCN(Cc3ccc(F)cc3Cl)C(=O)C2=O)c1` too.
## Result 50.1

## Task Check `CCN1C(=O)CC[C@H]1C(=O)NCc1ccccc1C#N` too.
## Result 631

## Task Check `CCc1nnc2n1CCN(C(=O)c1cccc(C(F)(F)F)c1Cl)C2` too.
## Result 31.6

## Task Check `CNc1nnc2n1CCN(C(=O)c1cccc(C(F)(F)F)c1Cl)C2` too.
## Result 251

## Task Check `O=C(c1cccc(Cl)c1Cl)N1CCn2c(nnc2-c2ccc[nH]2)C1` too.
## Result 2.51

## Task Check `Cc1ncccc1N1C[C@@H](C(=O)NCc2ccc(F)c(F)c2Cl)N(C)C1=O` too.
## Result 31.6

## Task Check `O=C(c1cccc(C(F)(F)F)c1Cl)N1CCn2c(nnc2-c2cscn2)C1` too.
## Result 1.58

## Task Check `CCN1C(=O)NC[C@H]1C(=O)NCc1ccc(F)cc1Cl` too.
## Result 39.8

## Task Check `Cc1nn(-c2ccccc2)c(C)c1CC(=O)NCc1ccc(F)c(F)c1` too.
## Result 251

## Task Check `O=C(c1cccc(C(F)(F)F)c1Cl)N1CCN(c2ccc(F)cc2Cl)C(=O)C1` too.
## Result 15.8

## Task Check `CC(C)(C)CN1C(=O)CC[C@@H]1C(=O)NCc1cccc(C(F)(F)F)c1Cl` too.
## Result 158

## Task Check `COc1ccccc1N1CCN(Cc2ccc(F)cc2Cl)C(=O)C1=O` too.
## Result 50.1
